Cited source for all entries: patent US20060142323A1

- test-target: AChE from bovine erythrocytes (Bos taurus)
- Construct: 0.02 units AChE (Sigma Chemical Co. from bovine erythrocytes); purchased Sigma Chemical Co; host or cells: bovine erythrocytes
- Sequence (P23795 31-614 isoform P23795-2 limits assumed): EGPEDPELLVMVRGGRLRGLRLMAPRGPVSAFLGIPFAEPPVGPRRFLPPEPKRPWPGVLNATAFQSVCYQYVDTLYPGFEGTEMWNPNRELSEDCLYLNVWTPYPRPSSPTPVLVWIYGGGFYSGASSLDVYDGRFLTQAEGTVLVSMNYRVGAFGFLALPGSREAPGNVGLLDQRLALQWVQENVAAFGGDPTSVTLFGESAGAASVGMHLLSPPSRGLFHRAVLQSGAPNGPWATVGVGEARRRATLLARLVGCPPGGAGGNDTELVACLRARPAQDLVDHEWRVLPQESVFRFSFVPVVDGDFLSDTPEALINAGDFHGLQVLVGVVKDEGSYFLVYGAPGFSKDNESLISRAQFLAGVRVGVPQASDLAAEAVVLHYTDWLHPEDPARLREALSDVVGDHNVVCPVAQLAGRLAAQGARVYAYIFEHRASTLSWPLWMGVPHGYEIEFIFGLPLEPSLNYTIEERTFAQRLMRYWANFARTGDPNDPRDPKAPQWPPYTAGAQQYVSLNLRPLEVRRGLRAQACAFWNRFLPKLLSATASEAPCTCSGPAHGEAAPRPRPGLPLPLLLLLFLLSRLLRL
- assay-remarks: AChE inhibition (from bovine erythrocytes), Ellman method at 25° C., Fluostar reader
- Format: biochemical
- experimental-conditions: 0.5 mM acetylthiocholine iodide, pH 8, 10 min preincubation
pIC50: −log10 of the molar value.
value-type: pIC50

{"columns": ["compound", "value-type", "result"],
 "data": [
  ["CCCn1s/c(=N\\CCCCCCCNc2c3c(nc4ccccc24)CCCC3)n(CC)c1=O [Compound 16]", "pIC50", 6.69]
]}
